molecular target: IN-GCN2 interaction (6xHis-IN / GST-GCN2) (UniProt P04585+Q9P2K8); assay: biochemical; assay type: binding, HIV-1 IN; human GCN2; settings: screen, single dose 100 µM, single replicate; residual AlphaLISA signal normalized to DMSO control
Sequence (Q9P2K8 192-1024, other chains not shown): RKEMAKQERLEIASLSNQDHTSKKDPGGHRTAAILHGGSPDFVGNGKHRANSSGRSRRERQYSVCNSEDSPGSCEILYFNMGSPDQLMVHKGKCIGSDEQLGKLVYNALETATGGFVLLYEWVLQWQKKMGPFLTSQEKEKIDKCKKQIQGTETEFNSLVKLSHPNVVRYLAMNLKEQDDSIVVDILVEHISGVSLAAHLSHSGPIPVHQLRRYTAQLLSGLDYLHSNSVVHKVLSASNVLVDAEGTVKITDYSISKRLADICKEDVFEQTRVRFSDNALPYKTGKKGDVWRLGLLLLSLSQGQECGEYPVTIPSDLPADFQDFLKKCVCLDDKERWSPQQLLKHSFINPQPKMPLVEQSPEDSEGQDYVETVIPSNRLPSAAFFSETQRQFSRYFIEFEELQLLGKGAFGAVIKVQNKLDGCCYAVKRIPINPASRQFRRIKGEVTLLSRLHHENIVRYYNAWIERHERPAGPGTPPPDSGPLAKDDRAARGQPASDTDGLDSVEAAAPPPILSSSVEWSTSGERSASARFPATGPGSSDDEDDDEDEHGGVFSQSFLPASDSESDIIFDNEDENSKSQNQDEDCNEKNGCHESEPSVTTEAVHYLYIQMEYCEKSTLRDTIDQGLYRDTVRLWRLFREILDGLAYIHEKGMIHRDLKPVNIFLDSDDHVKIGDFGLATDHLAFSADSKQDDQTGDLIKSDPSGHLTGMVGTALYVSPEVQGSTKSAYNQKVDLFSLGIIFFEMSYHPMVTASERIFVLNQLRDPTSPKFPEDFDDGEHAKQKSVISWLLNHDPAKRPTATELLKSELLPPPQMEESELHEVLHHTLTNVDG
OBSERVATION_TYPE: IN-GCN2 interaction (%)
Answers are plain numbers, in %.

COMPOUND: COc1ccc2c(c1)O[C@H]1c3ccc(O)cc3OC[C@@H]21 [NSC350085]
EXPERIMENTAL_SYSTEM: IN-GCN2 interaction (6xHis-IN / GST-GCN2) (UniProt P04585+Q9P2K8)
IN-GCN2 interaction (%): 73.66

Could I get IN-GCN2 interaction (%) for every one of these entries?
1. COC(=O)C1=COC(C)C2CN3CCc4c([nH]c5cc(OC)c(OC)cc45)C3CC12.O=C(O)CC(O)(CC(=O)O)C(=O)O (centres unmarked) [NSC72715]
2. COc1ccc(CC2=NCCc3cc(OC)c(OC)cc32)cc1OC.O=C(O)C(=O)O [NSC35550]
3. COc1cc2c3c(c1OC)-c1ccccc1C[C@H]3N(C)CC2 [NSC785145]

Result ::
1. 63.54
2. 110.36
3. 66.76

Could I get IN-GCN2 interaction (%) for every one of these entries?
1. COC(=O)[C@@]12OC[C@]34[C@H]([C@@H](O)[C@@H]1O)[C@@]1(C)CC(=O)C(O)=C(C)[C@@H]1C[C@H]3OC(=O)[C@H](OC(=O)/C=C(\C)C(C)C)[C@@H]24 [NSC165563]
2. CCCCCC[C@@H](O)C/C=C\CCCCCCCC(=O)[O-].[Na+] [NSC2835]
3. CC1CCOC(=O)/C=C/C=C/C(=O)OC2CC3OC4C5OC5(C)C(O)CC4(COC(=O)C1O)C2(C)C31CO1 (centres unmarked) [NSC328166]
4. CC(=O)O[C@@H]1[C@@H](O)[C@H](O[C@H]2[C@H](OC(=O)[C@H]3CC[C@H]4[C@@H](C3)O[C@@]3(C[C@H](OC(=O)/C=C/c5ccccc5)[C@H](C)CO3)[C@]43CO3)O[C@H](C)[C@@H](O)[C@@H]2OC(C)=O)O[C@H](C)[C@H]1O [NSC328426]
5. COc1cc(OC)c(C(=O)/C=C/c2ccc(OC)c(OC)c2)c(OC)c1 [NSC75527]

Result ::
1: 97.95; 2: 143.81; 3: 102.91; 4: 91.16; 5: 89.20

Could I get IN-GCN2 interaction (%) for every one of these entries?
1. CO[C@H]1/C=C\C=C(/C)C(=O)NC2=CC(=O)C(N)=C(C[C@@H](C)C[C@H](OC)[C@H](O)[C@@H](C)/C=C(\C)[C@@H]1OC(N)=O)C2=O [NSC255109]
2. CO[C@@H](/C(C)=C/C=C/C(C)=C/c1coc(C)n1)[C@@H](C)[C@@H]1C[C@H](O)[C@@]2(C)O[C@@H]2/C=C/[C@@H](C)[C@H]2C[C@H](CC(=O)O2)C[C@@H]2O[C@H]2C(=O)O1 [NSC332598]
3. C=C(C)[C@H]1Cc2c(ccc3c2O[C@@H]2COc4cc(OC)c(OC)cc4[C@@H]2C3=O)O1 [NSC26258]
4. CC(=O)C1CCCC(=O)/C=C/C(=O)O1 (centres unmarked) [NSC180515]
5. CC[C@H]1CN2CCc3cc(OC)c(OC)cc3[C@@H]2C[C@@H]1C[C@H]1NCCc2cc(O)c(OC)cc21 [NSC32944]
6. COc1cc2c3c(c1OC)Oc1ccc(cc1)C[C@H]1c4c(cc(OC)c(OC)c4Oc4ccc(cc4)C[C@H]3N(C)CC2)CCN1C [NSC785174]
7. CC(C)=CCC1=C(O)c2ccccc2C(=O)C1=O [NSC11905]
8. CC(C)=CC(=O)O[C@H]1[C@H]2[C@H](OC(=O)[C@H]2C)[C@H](O)[C@@H](C)[C@@H]2C=CC(=O)[C@]21C [NSC176503]

Result ::
1: 108.78; 2: 94.06; 3: 55.12; 4: 108.07; 5: 81.67; 6: 57.96; 7: 107.31; 8: 99.27

Could I get IN-GCN2 interaction (%) for every one of these entries?
1. COc1c2occc2c(OC)c2c(=O)cc(C)oc12 [NSC8519]
2. CO[C@@H]1C[C@](C)(O)Cc2cc3c(c(O)c21)C(=O)c1c(O)cc2c(c1C3=O)O[C@@H]1O[C@@]2(C)[C@H](O)[C@@H](N(C)C)[C@@H]1O [NSC269148]
3. COc1cc([C@@H]2c3cc4c(cc3[C@H](O)[C@H]3COC(=O)[C@@H]23)OCO4)cc(OC)c1OC [NSC36407]
4. COc1cc2c3c(c1O)Oc1ccc(cc1)C[C@@H]1c4c(cc(OC)c(OC)c4Oc4ccc(cc4)C[C@@H]3N(C)CC2)CCN1C [NSC785173]
5. Cc1cc2nc3[nH]c(=O)[nH]c(=O)c3nc2cc1C [NSC96911]
6. COc1cc2c3c(c1O)-c1ccccc1CC3N(C)CC2 (centres unmarked) [NSC785177]

Result ::
1. 129.74
2. 113.29
3. 109.04
4. 45.72
5. 89.81
6. 73.43

Could I get IN-GCN2 interaction (%) for every one of these entries?
1. CCC1(O)CC(OC2CC(N(C)C)C(OC3CC(O)C(OC4CCC(=O)C(C)O4)C(C)O3)C(C)O2)c2c(cc3c(c2O)C(=O)c2c(O)ccc(O)c2C3=O)C1C(=O)OC (centres unmarked) [NSC18334, cinerubin A]
2. COc1cc2c(cc1OC)-c1c(OC)c(OC)cc3c1C(C2)N(C)CC3 (centres unmarked) [Compound 3k]
3. CC(C)C[C@H](N)C(=O)O [NSC46709]
4. CC1C(=O)OC2CCN3CC4OC4(COC(=O)C(C)(O)C1(C)O)C23 (centres unmarked) [NSC113087]

Result ::
[5.47, 124.35, 84.16, 97.53]

Could I get IN-GCN2 interaction (%) for every one of these entries?
1. COc1c(O)cc2oc3cc(O)c(CC=C(C)C)c(O)c3c(=O)c2c1CC=C(C)C [NSC30552]
2. COc1cc2c(cc3c4c(cc5c(c42)OCO5)CCN3C)c(OC)c1OC [NSC785155]

Result ::
[60.59, 8.90]

----------
target: IN-GCN2 interaction (6xHis-IN / GST-GCN2) (UniProt P04585+Q9P2K8); assay: biochemical; type: binding, HIV-1 IN; human GCN2; details: screen, single dose 100 µM, single replicate; residual AlphaLISA signal normalized to DMSO control
Would you kindly list IN-GCN2 interaction (%) for each of these compounds?
Answers are plain numbers, in %.

Example entries begin here.
COMPOUND: COc1cccc2c1cc([N+](=O)[O-])c1c(C(=O)O)cc3c(c12)OCO3 [NSC11926]
IN-GCN2 interaction (%): 137.25
//
COMPOUND: CC1(C)CCC2=C(O1)C(=O)c1ccccc1C2=O [NSC26327]
IN-GCN2 interaction (%): 99.02
//
COMPOUND: COC(=O)[C@@]12OC[C@]34[C@H]([C@@H](O)[C@@H]1O)[C@@]1(C)CC(=O)C(O)=C(C)[C@@H]1C[C@H]3OC(=O)[C@H](OC(=O)C=C(C)C)[C@@H]24 [NSC172924]
IN-GCN2 interaction (%): 122.74
//
COMPOUND: C[C@H](CCC(=O)O)[C@H]1CC[C@H]2[C@@H]3CC[C@@H]4C[C@H](O)CC[C@]4(C)[C@H]3C[C@H](O)[C@]12C [NSC8797]
IN-GCN2 interaction (%): 85.28
//
COMPOUND: COC(=O)[C@@H]1[C@H]2C[C@H]3c4[nH]c5ccccc5c4CCN3C[C@@H]2CC[C@@H]1O [NSC19509]
IN-GCN2 interaction (%): 68.27

Could I get IN-GCN2 interaction (%) for every one of these entries?
1. COc1c(OC)c(OC)c2c3c(cc4ccccc42)NC(=O)C(=O)c13 [NSC785151]
2. CC(C)c1ccc2c(c1)CC[C@H]1[C@](C)(C(=O)O)CCC[C@]21C [NSC2952]
3. O=C1C=C[C@H](O)[C@@]2(CO)O[C@@H]12 [NSC266032]

Result ::
[48.18, 107.26, 108.08]

Could I get IN-GCN2 interaction (%) for every one of these entries?
1. O=c1cc(-c2ccccc2)oc2ccccc12 [NSC19028]
2. NC(Cc1cc(I)c(O)c(I)c1)C(=O)O (stereo not drawn) [NSC4143]

Result ::
58.68
75.41
